Values were extracted from ChEMBL document CHEMBL3785019.

Tested on: HepG2
Test: Cytotoxicity against human HepG2 cells after 48 hrs by MTT assay
Assay type: functional, cell-based
Settings: hepg2
PROPERTY NAME: IC50

In the examples that follow, each entry is paired with its recorded IC50.
[[record]]
compound = "CC1CCCCN1CC(=O)N1N=C(c2cc3ccccc3oc2=O)CC1c1ccccc1 (stereo not given)"
property_name = "IC50"
recorded_measurement = "Not Active"

[[record]]
compound = "CC1=NN(C(=O)CN2CCN(C)CC2)C(c2ccccc2O)C1 (stereo not given)"
property_name = "IC50"
recorded_measurement = "Not Active"

[[record]]
compound = "CC1=NN(C(=O)c2ccc(C)cc2)C(c2cc(Br)cc(Br)c2O)C1 (stereo not given)"
property_name = "IC50"
recorded_measurement = "Not Active"

[[record]]
compound = "CC1=NN(C(=O)COc2ccc(Cl)cc2)C(c2ccccc2O)C1 (stereo not given)"
property_name = "IC50"
recorded_measurement = "Not Active"

[[record]]
compound = "CC1=NN(S(=O)(=O)c2ccc(C)cc2)C(c2cc(Br)cc(Br)c2O)C1 (stereo not given)"
property_name = "IC50"
recorded_measurement = "Not Active"


Could you now look at the following compound, please?
Give HepG2 IC50 for O=C(CN1CCC(O)CC1)N1N=C(c2cc3ccccc3oc2=O)CC1c1ccccc1 (stereo not given)
Not Active
